B1: library; a variant is named by its letters at N, in order (parent)
chain: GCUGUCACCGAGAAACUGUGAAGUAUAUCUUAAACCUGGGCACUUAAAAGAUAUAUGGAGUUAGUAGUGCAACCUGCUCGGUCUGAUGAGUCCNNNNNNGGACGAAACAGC

- Variants of: B1
- assay-overview: normalized RNA/DNA level with ligand (relative to sTRSVctl = 100) (log10 (% of sTRSVctl)); HEK293T; ligand: cyclic di-GMP (c-di-GMP-II aptamer); ligand concentration (+) RNA-Seq: 1 mM; higher = less ribozyme self-cleavage, higher mRNA level
- test-context: reporter: mCherry (pCS4076), ligand present: yes
Let's look at some variants and their measured normalized RNA/DNA level with ligand (log10).
Give only the figure.

Worked set:
>>> reported_measurement("UCGAAC")
1.76
>>> reported_measurement("CCCGCA")
1.8
>>> reported_measurement("UCAACG")
1.89
>>> reported_measurement("UUGUAU")
1.82
>>> reported_measurement("CCCGGU")
1.87

Fill in the blank: the reported normalized RNA/DNA level with ligand (log10) of GCCUAU is ____. 1.85

Then what about the variant GCAUCU ? 1.79

Quick one: CGCCUU 1.72

Let us now turn to CUAUUA 1.6

Same question for GAAUUA please. 1.74

Field entry: CAUAAU 1.63

Continue with CAUCUC 1.86

Let us now turn to CCCGAC 1.81

All values here come from the supplement of paper PMC6757056.
